Source listed as PubChem BioAssay (NCI).

Test: NCI Yeast Anticancer Drug Screen. Data for the bub3 strain (AID 167)
Conditions: S. cerevisiae bub3 mutant strain, at 5.0 µM (retest, dose inferred, filed as 0.5)
Compounds without any hit were thinned out: in the full panel of roughly 79,000, 15% have a hit. The source made the active and inactive calls. No stated cut-off is given here; in the data, active means growth inhibition above about 70%; inactive means the rest.
Assign a class; possible classes are TRUE = active, FALSE = inactive

Challenge: For this compound, state the assay outcome: "O=[N+]([O-])/C=C/c1ccc([N+](=O)[O-])cc1"
Response given: TRUE

Challenge: For this compound, state the assay outcome: "Cc1cccc(C)c1N=C(N)N[N+](=O)[O-]"
Response given: FALSE

Challenge: For this compound, state the assay outcome: CC(c1ccccc1)N1O[C@]12CC[C@@]1(C)C(CCCC13OCCO3)C2 (some centres not stated)
Response given: TRUE

Challenge: For this compound, state the assay outcome: "Clc1cc[c]([Tl][c]2ccc(Cl)cc2)cc1"
Response given: TRUE

Challenge: For this compound, state the assay outcome: CCC(C)c1cnc(CC(C)C)c(=O)n1O (configuration not stated)
Response given: FALSE

Challenge: For this compound, state the assay outcome: "O=C(O)C(O)(c1ccc(-c2ccccc2)cc1)c1ccc(-c2ccccc2)cc1"
Response given: FALSE

Challenge: For this compound, state the assay outcome: ClCCN(Cc1ccccc1)CC1COc2ccccc2O1 (configuration not stated)
Response given: FALSE

Challenge: For this compound, state the assay outcome: "[CH3][Sn]([CH3])([Br])[Br].c1ccc(-c2nnc(-c3ccccn3)nc2-c2ccccc2)cc1"
Response given: FALSE

Challenge: For this compound, state the assay outcome: "O=[N+]([O-])c1ccc(Br)c([N+](=O)[O-])c1"
Response given: FALSE

Challenge: For this compound, state the assay outcome: ClC1=C(Cl)C2(Cl)C(Cl)CC1(Cl)C2(Cl)Cl (configuration not stated)
Response given: FALSE

Challenge: For this compound, state the assay outcome: "CCOP(=S)(OCC)SCc1c(C)c(C)c(CSP(=S)(OCC)OCC)c(C)c1C"
Response given: FALSE

Challenge: For this compound, state the assay outcome: CC12CCC(=O)C=C1CCC1C2CCC2(C)C(O[Si](C)(C)OC3CCC4C5CCC6=CC(=O)CCC6(C)C5CCC34C)CCC12 (configuration not stated)
Response given: FALSE

Challenge: For this compound, state the assay outcome: CC(CCC/C=C/CCCN(C)C(=N)N)CC(C)C1OC(=O)C(C)C(O)/C=C/C(C)C(O)C(C)C(O)C(C)C(O)CCCC(O)CC2(O)OC(CC(OC(=O)CC(=O)O)CC(O)CC(O)C(C)C(O)/C=C/C=C/C1C)CC(O)C2O (configuration not stated)
Response given: FALSE

Challenge: For this compound, state the assay outcome: CCOC(=O)C1C(O)=C(P(=O)(C2=C(O)C(C(=O)OCC)C(c3ccc(OC(C)=O)cc3)C(C(=O)O)C2=O)N(CCCl)CCCl)C(=O)C(C(=O)O)C1c1ccc(OC(C)=O)cc1 (configuration not stated)
Response given: FALSE

Challenge: For this compound, state the assay outcome: "O=[N+]([O-])c1c[c]([Hg][Cl])c(O)[c]([Hg][Cl])c1"
Response given: TRUE

Challenge: For this compound, state the assay outcome: "Cc1ccc2c(-c3ccccc3)c3ccccc3[s+]c2c1"
Response given: FALSE

Challenge: For this compound, state the assay outcome: "C/C(=C\c1ccc(Cl)c(Cl)c1)[N+](=O)[O-]"
Response given: FALSE

Challenge: For this compound, state the assay outcome: "O=c1s[se]c2ccccc12"
Response given: FALSE

Challenge: For this compound, state the assay outcome: "CC(=O)[O-].O=C([CH-]C(=O)c1ccccc1)c1ccccc1.O=C([CH-]C(=O)c1ccccc1)c1ccccc1.[Y+3]"
Response given: FALSE

Challenge: For this compound, state the assay outcome: "CC(C)c1ccc(C(c2c(O)c3ccccc3oc2=O)c2c(O)c3ccccc3oc2=O)cc1"
Response given: FALSE

Challenge: For this compound, state the assay outcome: "CC/C(=C/c1ccc(OC)cc1OC)[N+](=O)[O-]"
Response given: FALSE

Challenge: For this compound, state the assay outcome: "O=[N+]([O-])c1ccc(C(Br)Br)cc1"
Response given: TRUE

Challenge: For this compound, state the assay outcome: "O=C([CH-]C(=O)c1ccccc1)c1ccccc1.O=C([CH-]C(=O)c1ccccc1)c1ccccc1.O=C([CH-]C(=O)c1ccccc1)c1ccccc1.[Cl-].[Hf+4]"
Response given: FALSE

Challenge: For this compound, state the assay outcome: COc1ccc2c(c1)CCC(N1CCCC(=O)C1)C2 (configuration not stated)
Response given: FALSE

Challenge: For this compound, state the assay outcome: OCC1N2CCC(CC2)C1(O)O (configuration not stated)
Response given: FALSE

Challenge: For this compound, state the assay outcome: "CN=C(N)N/N=C(\C)c1ccc2sc3ccc(/C(C)=N/NC(N)=NC)cc3c2c1"
Response given: FALSE

Challenge: For this compound, state the assay outcome: CC(C)c1oc(=O)cc2c1C(O)C1OC(=O)C3(C)C(O)C4OC4C2(C)C13 (configuration not stated)
Response given: FALSE

Challenge: For this compound, state the assay outcome: "CC[CH2][Pb]([CH2]CC)([CH2]CC)[O]C(C)=O"
Response given: TRUE

Challenge: For this compound, state the assay outcome: "Cc1ccc2c(c1)N(CCN(CCCl)CCCl)c1c(ccc3ccccc13)S2"
Response given: FALSE

Challenge: For this compound, state the assay outcome: COC12C(COC(N)=O)C3=C(C(=O)C(C)=C(NC(C)C)C3=O)N1CC1NC12 (configuration not stated)
Response given: FALSE

Challenge: For this compound, state the assay outcome: CC1(Br)Cc2ccccc2C1=O (configuration not stated)
Response given: FALSE

Challenge: For this compound, state the assay outcome: "CC(C)=N.[C-]#[O+].[C-]#[O+].[C-]#[O+].[C-]#[O+].[C-]#[O+].[W]"
Response given: FALSE

Challenge: For this compound, state the assay outcome: "COc1cc2c(c3c[n+](C)c4c5cc6c(cc5ccc4c13)OCO6)OCO2"
Response given: TRUE

Challenge: For this compound, state the assay outcome: "CC1=C[C@H]2O[C@H]3C[C@H]4OC(=O)/C=C\C=C\C(=O)OCC[C@@H](C)[C@H](O)C(=O)OC[C@@]2(CC1)[C@@]4(C)[C@]31CO1"
Response given: TRUE

Challenge: For this compound, state the assay outcome: "CC1=CC(=C2C=CC(=[N+](C)C)C=C2)C=C(C)S1"
Response given: FALSE

Challenge: For this compound, state the assay outcome: "O=C([O-])C(F)(F)C(F)(F)F.[C-]#[O+].[C-]#[O+].[C-]#[O+].[C-]#[O+].[C-]#[O+].[Re]"
Response given: FALSE

Challenge: For this compound, state the assay outcome: "[O-][n+]1onc2c1-c1nonc1CC2"
Response given: FALSE
